Hello, the source for this data is patent US9216977B2, in case you need it.

- System: panel of cancer cell lines including A549 (lung), DU-145 (prostate), KB (nasopharyngeal), and HCT-8 (colon)
Endpoint label: range of cytotoxicity / anticancer activity in words

COc1ccc2c3c(c4cc(OC)c(OC)cc4c2c1)C[C@H]1C[C@H](O)CCN1C3 [Compound 13b, (13R,14aS)-13-hydroxyl-cryptopleurine] = low nM range
COc1ccc2c3c(c4cc(OC)c(OC)cc4c2c1)C[C@H]1C[C@@H](O)CCN1C3 [Compound 13a, (13S,14aS)-13-hydroxyl-eryptopleurine] = low nM range

====

- Test system: HCT-8
- Assay remarks: in vitro screen against human tumor cell line HCT-8 (colon), GI50
- Format: cell-based
- Experimental context: Homo sapiens, HCT-8, Example 2, Table 3, 13-aza-cryptopleurines; read-out: GI50 HCT-8
Endpoint label: GI50 (µM)
Dear colleague, please return just the value in µM, with no unit written.

COC(=O)N1CCN2Cc3c(c4cc(OC)c(OC)cc4c4cc(OC)ccc34)C[C@H]2C1 [Compound 8c] = 12.1
COC(=O)CN1CCN2Cc3c(c4cc(OC)c(OC)cc4c4cc(OC)ccc34)C[C@H]2C1 [Compound 8f] = 14

The record that follows has no GI50 shown yet.
In: Value lookup for GI50; key = COc1ccc2c3c(c4cc(OC)c(OC)cc4c2c1)C[C@H]1CN(C(=O)c2ccccc2)CCN1C3 [Compound 8i, (S)-13-aza-13N-benzoyl-cryptopleurine]
Out: 18.1
